Just for reference, patent US20230066946A1 is where these values come from.

In this section, each of the compounds is paired with its reported Pre-emergence action against STEME in %.
- Tested on: STEME
- assay-notes: Pre-emergence herbicidal action against STEME
- Type: in vivo, Stellaria media
- test-settings: 1280 g/ha, scored visually after about 3 weeks vs untreated controls
Numbers only here, please. The scale is %.

Some compounds with known Pre-emergence action against STEME in % results, for comparison:
C=CCNC(=O)COc1nn(-c2ccccc2F)c(-c2ccc(F)c(F)c2)c1Br | 100
C=CCNC(=O)COc1nn(-c2ccc(F)cc2)c(-c2cccc(F)c2)c1I | 100
COC(=O)COc1nn(-c2ccccc2)c(-c2cccc(F)c2)c1C#N | 90
CCOC(=O)COc1nn(-c2ccc(F)cc2F)c(-c2ccccc2)c1Cl | 100

Okay, next one:
Which measured Pre-emergence action against STEME in % value corresponds to "COC(=O)COc1nn(-c2cccc(F)c2)c(-c2cccc(F)c2)c1Cl" ?
100

----------
Here the recorded Pre-emergence action against STEME in % is given for each entry.
- Tested on: STEME
- assay-notes: Pre-emergence herbicidal action against STEME
- Assay type: in vivo, Stellaria media
- test-settings: 1280 g/ha, scored visually after about 3 weeks vs untreated controls
Entry rule: numbers only, all in %.

Answered cases to consult:
COC(=O)COc1nn(-c2ccccc2F)c(-c2ccccc2)c1Cl | 90
C#Cc1c(OCC(=O)OC)nn(-c2cccc(F)c2)c1-c1cccc(F)c1 | 90
O=C(COc1nn(-c2ccccc2)c(-c2ccc(F)cc2)c1Br)NCC1CC1 | 100
CCOC(=O)COc1nn(-c2ccccc2F)c(-c2ccc(F)c(F)c2)c1[N+](=O)[O-] | 90

Record request: Pre-emergence action against STEME in % value, item "CC(C)(Oc1nn(-c2ccccc2)c(-c2ccc(F)cc2)c1Br)C(=O)O"
100

----------
- System: STEME
- assay-notes: Pre-emergence herbicidal action against STEME
- Format: in vivo, Stellaria media
- test-settings: 1280 g/ha, scored visually after about 3 weeks vs untreated controls
reported-metric: Pre-emergence action against STEME in % (%)
Enter your answer as a number in %; do not include the unit.

CC(C)(C)N.O=C(O)COc1nn(-c2cccc(F)c2)c(-c2ccccc2)c1I | 100
CCCN(CCC)CCC.O=C(O)COc1nn(-c2cccc(F)c2)c(-c2ccccc2)c1I | 90

Value lookup for Pre-emergence action against STEME in %; key = "COC(=O)COc1nn(-c2ccccc2F)c(-c2ccc(F)s2)c1Br"
100

"O=C(O)COc1nn(-c2ccc(F)cc2)c(-c2cccc(F)c2)c1Cl" , same question.
100

Quick one: CC(Oc1nn(-c2ccccc2)c(-c2ccc(F)cc2)c1Br)C(=O)O (centres unmarked)
100

----------
- System: LOLRI
- assay-notes: Post-emergence herbicidal action against LOLRI
- Type: in vivo, Lolium rigidum
- test-settings: 1280 g/ha, post-emergence at one-leaf stage, rated visually after about 3 weeks vs untreated controls
The entries below are paired with their reported Post-emergence action against LOLRI in %.
Output spec: scalar in %, unitless text.

Before answering, review these 3 worked examples.
COC(=O)C(C)Oc1nn(-c2ccccc2F)c(-c2ccc(F)c(F)c2)c1C#N (stereo not shown) [I-171] | 100
COC(=O)C(C)Oc1nn(-c2cccc(F)c2)c(-c2cccc(F)c2)c1C#N (stereo not shown) [I-067] | 90
COC(=O)[C@@H](C)Oc1nn(-c2ccccc2)c(-c2ccc(F)cc2)c1C#N [I-130] | 90

Switching to the query record.
// Post-emergence action against LOLRI in % lookup, key: O=C(O)COc1nn(-c2ccccc2)c(-c2ccc(F)cc2)c1Br [I-057]
80

----------
- System: STEME
- assay-notes: Pre-emergence herbicidal action against STEME
- Type: in vivo, Stellaria media
- test-settings: 1280 g/ha, scored visually after about 3 weeks vs untreated controls
reported-metric: Pre-emergence action against STEME in %
Output should be the measured figure followed by the unit it is expressed in.

Worked set:
COC(=O)COc1nn(-c2ccc(F)cc2)c(-c2cccc(F)c2)c1Br | 100%
C=CCNC(=O)COc1nn(-c2ccccc2F)c(-c2ccc(F)c(F)c2)c1Cl | 90%
C=C(C)CNC(=O)COc1nn(-c2ccccc2F)c(-c2ccccc2)c1Br | 100%

For the record "CCOC(=O)COc1nn(-c2ccc(Cl)cc2F)c(-c2ccc(F)cc2)c1Br" , what value of Pre-emergence action against STEME in % is listed for STEME?
100%

// next record "COC(=O)COc1nn(-c2ccccc2F)c(-c2ccc(F)s2)c1Cl"
100%

----------
Post-emergence action against POLCO in % values for the compounds below.
- Test system: POLCO
- assay-notes: Post-emergence herbicidal action against POLCO
- Format: in vivo, Polygonum convolvulus
- test-settings: 320 g/ha, visual rating about 3 weeks after treatment
// unit must come after the numeric part

Recorded results for 10 compounds are shown here.
COC(=O)COc1nn(-c2ccccc2F)c(-c2ccccc2)c1Br | 80%
CCOC(=O)COc1nn(-c2ccc(F)cc2F)c(-c2ccccc2)c1Cl | 90%
CCOC(=O)COc1nn(-c2ccccc2)c(-c2ccc(F)cc2)c1Br | 80%
COC(=O)COc1nn(-c2ccccc2)c(-c2ccc(F)cc2)c1C#N | 80%
COC(=O)COc1nn(-c2ccc(F)cc2)c(-c2ccccc2)c1C#N | 80%
CCOC(=O)COc1nn(-c2ccccc2F)c(-c2ccccc2)c1[N+](=O)[O-] | 80%
C=CCNC(=O)COc1nn(-c2ccc(F)cc2)c(-c2cccc(F)c2)c1Br | 80%
COC(=O)COc1nn(-c2ccccc2F)c(-c2ccc(F)c(F)c2)c1Br | 80%
C=CCNC(=O)COc1nn(-c2ccccc2)c(-c2ccc(F)cc2)c1Br | 80%
CC(Oc1nn(-c2ccccc2)c(-c2ccc(F)cc2)c1Cl)C(=O)O (stereo not shown) | 90%

Which measured Post-emergence action against POLCO in % belongs to "COC(=O)COc1nn(-c2ccccc2F)c(-c2ccccc2)c1C#N" , tested on POLCO?
80%

Thanks! And "COC(=O)[C@@H](C)Oc1nn(-c2cccc(F)c2)c(-c2cccc(F)c2)c1C#N" ?
80%

Entry COC(=O)C(C)Oc1nn(-c2ccccc2F)c(-c2ccccc2)c1C#N (stereo not shown) please
80%

Input "COC(=O)[C@@H](C)Oc1nn(-c2ccccc2)c(-c2ccc(F)cc2)c1C#N"
90%

Entry to check: "C=CCNC(=O)COc1nn(-c2c(F)cccc2F)c(-c2ccc(F)c(F)c2)c1[N+](=O)[O-]"
80%

Ok, now COC(=O)C(C)Oc1nn(-c2ccccc2)c(-c2cc(F)cc(F)c2)c1Cl (stereo not shown)
80%

Follow-up entry: "O=C(O)COc1nn(-c2c(F)cccc2F)c(-c2ccc(F)c(F)c2)c1Br"
90%

Same question, "COC(=O)COc1nn(-c2ccccc2)c(-c2ccc(F)cc2)c1Cl" this time
80%

Quick one: "COC(=O)COc1nn(-c2ccccc2)c(-c2ccc(Cl)cc2)c1Cl"
80%

----------
Measured Pre-emergence action against HORMU in %, listed per entry for reference.
- System: HORMU
- assay-notes: Pre-emergence herbicidal action against HORMU
- Assay type: in vivo, Hordeum murinum
- test-settings: 320 g/ha, scored visually after about 3 weeks vs untreated controls
Include the unit after the number when you answer.

// worked examples, Pre-emergence action against HORMU in % included
COC(=O)[C@@H](C)Oc1nn(-c2ccccc2)c(-c2ccc(F)cc2)c1C#N [I-130] | 100%
COC(=O)C(C)Oc1nn(-c2ccccc2)c(-c2ccc(F)cc2)c1C#N (stereo not drawn) [I-064] | 90%
C=CCNC(=O)COc1nn(-c2c(F)cccc2F)c(-c2ccc(F)c(F)c2)c1[N+](=O)[O-] [III-069] | 90%
COC(=O)[C@@H](C)Oc1nn(-c2cccc(F)c2)c(-c2cccc(F)c2)c1C#N [I-125] | 90%
CC(Oc1nn(-c2ccccc2)c(-c2ccc(F)cc2)c1Cl)C(=O)O (stereo not drawn) [I-139] | 90%

Kindly review the next compound as well.
Lab request: please report Pre-emergence action against HORMU in % under test system HORMU for CCOC(=O)COc1nn(-c2ccccc2)c(-c2ccc(F)cc2)c1Br [I-056]
80%

----------
Reported values of Pre-emergence action against STEME in % for individual entries
- Tested on: STEME
- assay-notes: Pre-emergence herbicidal action against STEME
- Format: in vivo, Stellaria media
- test-settings: 1280 g/ha, scored visually after about 3 weeks vs untreated controls
Record the value in %, omitting the unit from your answer.

Consider the following illustrative entries.
COC(=O)[C@H](C)Oc1nn(-c2cccc(F)c2)c(-c2cccc(F)c2)c1C#N | 100
CCOC(=O)COc1nn(-c2ccc(F)cc2)c(-c2ccc(F)cc2F)c1Br | 90

Next up:
Request - read-out Pre-emergence action against STEME in % | tested on STEME | compound "O=C(COc1nn(-c2ccc(F)cc2)c(-c2cccc(F)c2)c1Cl)NCC1CC1"
100
